# protocol: Antiproliferative activity against mouse macrophages after 24 hrs by MTT assay
# Assay type: cell-based
# experimental context: Macrophage
pIC50: −log10 of the molar value.
quantity measured: pIC50

{"structure notation": "COc1cc(/C=C/C(=O)/C=C/c2ccc(OC(C)=O)c(OC)c2)ccc1OC(C)=O", "quantity measured": "pIC50", "reported": 3.56}
{"structure notation": "COc1cc(/C=C/C(=O)/C=C/c2ccc(O)c(OC)c2)ccc1O", "quantity measured": "pIC50", "reported": 4.29}

---

# Tested on: PC-3
# protocol: Antitumor activity against human PC3 cells after 48 hrs by SRB assay
# Format: functional, cell-based
# experimental context: PC-3, 48 h
# Yes = IC50 below 2000 nM (exclusive); No = IC50 at/above 2000 nM

{"structure notation": "COc1cc(/C=C/C(=O)/C=C/c2ccc(OC(C)=O)c(OC)c2)ccc1OC(C)=O", "measured target": "PC-3", "assigned class": "Yes"}
{"structure notation": "COc1cc(/C=C/C(=O)/C=C/c2ccc(OCC=C(C)C)c(OC)c2)ccc1OCC=C(C)C", "measured target": "PC-3", "assigned class": "No"}
{"structure notation": "COc1ccc(/C=C/C(=O)/C=C/c2ccc(OC)c(OC)c2)cc1OC", "measured target": "PC-3", "assigned class": "No"}
{"structure notation": "COc1cc(/C=C/C(=O)/C=C/c2ccc(O)c(OC)c2)ccc1O", "measured target": "PC-3", "assigned class": "Yes"}
{"structure notation": "COc1cc(/C=C/C(/C=C/c2ccc(O)c(OC)c2)=C(C#N)C#N)ccc1O", "measured target": "PC-3", "assigned class": "No"}
